Origin of values: PubChem BioAssay (Tox21)

test: qHTS assay to identify small molecule that activate the aryl hydrocarbon receptor (AhR) signaling pathway - cell viability counter screen (AID 743086); details: HepG2-AhR-luc viability, CellTiter-Fluor, 24 h; series mostly up to 70.3 µM; note: nearly all actives have a fitted effect of over 45% in size
Inconclusive results are not listed. The source made the active and inactive calls. Calls come from the whole dose curve; as a rule, active = well fitted cell-killing curve with a large enough effect in the repeat runs; inconclusive = weak or mixed curves, or effect the other way; inactive = flat fitted curve, though single readings scatter.
Tick one outcome: T for active, F for inactive

How was O=P(O)(O)OC(CO)CO classified in this test? F

What is the recorded call for this molecule in the test? C/C1=C2N=C(/C=C3N=C(/C(C)=C4\[N-]C(C(CC(N)=O)C4(C)CCC(=O)NCC(C)OP(=O)([O-])OC4C(CO)OC(n5cnc6cc(C)c(C)cc65)C4O)C4(C)N=C1C(CCC(N)=O)C4(C)CC(N)=O)C(CCC(N)=O)C\3(C)C)C(CCC(N)=O)C/2(C)CC(N)=O.[CH3-].[Co+3] (stereo not drawn) T

Kindly provide the recorded test outcome for the following molecule: CCC(Oc1ccccc1)C(=O)N[C@@H]1C(=O)N2[C@@H]1SC(C)(C)[C@@H]2C(=O)O (stereo partly drawn) F

====

experiment: qHTS assay for identifying genotoxic compounds that show differential cytotoxicity against isogenic chicken DT40 cell lines with known DNA damage response pathways - Rev3 mutant cell line (AID 743014); conditions: chicken DT40 Rev3-/- viability, CellTiter-Glo, 40 h; series mostly up to 68.4 µM; note: nearly all actives have a fitted effect of over 55% in size
Inconclusive results are not listed. Calls of active or inactive are those of the source. Calls come from the whole dose curve; as a rule, active = well fitted cell-killing curve with a large enough effect in the repeat runs; inconclusive = weak or mixed curves, or effect the other way; inactive = no such curve, though single readings can be large or run the other way.
Classes to choose from: true (active), false (inactive)

Answer briefly: the call reported for O=C(OCCO)c1ccccc1O in this assay. false

Please share the test call associated with C#C[C@]1(O)CC[C@H]2[C@@H]3CCC4=C/C(=N/O)CC[C@@H]4[C@H]3CC[C@@]21CC . true

Which outcome did this test record for the compound CCCCC/C=C\C/C=C\C/C=C\CCCCC(=O)O ? false

Recorded test outcome, item C=CC[C@@H]1/C=C(\C)C[C@H](C)C[C@H](OC)[C@H]2O[C@@](O)(C(=O)C(=O)N3CCCC[C@H]3C(=O)O[C@H](/C(C)=C/[C@@H]3CC[C@@H](O)[C@H](OC)C3)[C@H](C)[C@@H](O)CC1=O)[C@H](C)C[C@@H]2OC true

Identify the outcome logged in this assay for the compound shown: CCCCCCOc1ccc(C(=N)N(CCCC)CCCC)c2ccccc12 true

Write down the call the test reported for this compound. Item: CCOC(=O)Cc1cccc(-c2cc(CCCCCCc3ccc(O[C@H]4O[C@H](COC(C)=O)[C@@H](OC(C)=O)[C@H](OC(C)=O)[C@@H]4OC(C)=O)c(-c4cccc(CC(=O)OCC)c4)c3)ccc2O[C@H]2O[C@H](COC(C)=O)[C@@H](OC(C)=O)[C@H](OC(C)=O)[C@@H]2OC(C)=O)c1 false

What was the test verdict on COc1ccc2c(c1)N(C[C@H](C)CN(C)C)c1ccccc1S2 ? true

Which outcome was entered for the compound C=C1c2c(Cl)ccc(O)c2C(O)=C2C(=O)[C@]3(O)C(O)=C(C(N)=O)C(=O)[C@@H](N(C)C)[C@@H]3[C@@H](O)[C@H]12 in this test? false

State the result this test recorded for N=C(N)c1ccc(OCCCOc2ccc(C(=N)N)cc2Br)c(Br)c1 . true

Short answer needed: outcome of this test for C[C@]12CCC(=O)C[C@@H]1CC[C@@H]1[C@@H]2CC[C@]2(C)C=CC[C@@H]12 ? false

Given CNC[C@@H]1CC[C@@H](N)[C@@H](O[C@H]2[C@H](O)[C@@H](O[C@H]3OC[C@](C)(O)[C@H](NC)[C@H]3O)[C@H](N)C[C@@H]2N)O1 , state the outcome it received in this test. false

What did this assay record as the result for CC1(C)S[C@@H]2[C@H](NC(=O)C(N)c3ccccc3)C(=O)N2[C@H]1C(=O)OC1OC(=O)c2ccccc21 (stereo partly specified) ? false

So what was the verdict on C[C@@H]1C/C=C/C=C/C=C/C=C/[C@H](O[C@@H]2O[C@H](C)[C@@H](O)[C@H](N)[C@@H]2O)C[C@@H]2O[C@](O)(C[C@@H](O)C[C@H]3O[C@@H]3/C=C/C(=O)O1)C[C@H](O)[C@H]2C(=O)O in this test? false

Hi team, can someone confirm the assay call for NC(=S)N=Nc1ccc(NN=C(N)N)cc1 ? true

Check the results log: what was the call for CCCCCCC(=O)O[C@H]1CC[C@H]2[C@@H]3CCc4cc(O)ccc4[C@H]3CC[C@]12C ? false

Short answer needed: outcome of this test for CCSc1ccc2c(c1)N(CCCN1CCN(C)CC1)c1ccccc1S2 ? true
